Tested on: NL-RLuc virus (recombinant HIV NL4-3 with Renilla Luciferase) in MT-2 cells
ASSAY REMARKS: Inhibition of HIV replication (NL-RLuc virus in MT-2 cells, luciferase readout)
Assay type: cell-based, human immunodeficiency virus (HIV)
CONDITION DESCRIPTION: MT2, 120 h, NL-RLuc virus infecting MT-2 cells, 5 days of incubation, 10% FBS, luciferase quantitation; at least 2 experiments
Consider the cut-off 10 nM. If the recorded EC50 is strictly smaller, the label is yes (1); if not, the label is no (0).

// known answers, use as guide
Cc1nc2cc3nn2c(c1[C@H](OC(C)(C)C)C(=O)O)N1CCC(C)(CC1)OCCCC[C@H](C)Oc1cc2ccccc2cc1COC3
yes (1)
Cc1nc2cc3nn2c(c1[C@H](OC(C)(C)C)C(=O)O)N1CCC(C)(CC1)OCCCC[C@@H](COCc1ccccc1)OC3
no (0)
Cc1nc2cc3nn2c(c1[C@H](OC(C)(C)C)C(=O)O)N1CCC(C)(CC1)OCCCCOCc1cn(nn1)C3
no (0)

Does the reported EC50 of Cc1nc2cc3nn2c(c1[C@H](OC(C)(C)C)C(=O)O)N1CCC(C)(CC1)OCCCc1ccccc1COC3 stay below 10 nM?
no (0)

Does the reported EC50 of Cc1nc2cc3nn2c(c1[C@H](OC(C)(C)C)C(=O)O)N1CCC(C)(CC1)OCCCCCc1cc(F)ccc1CN(C1CC1)C3 stay below 10 nM?
no (0)

Does the reported EC50 of Cc1nc2cc3nn2c(c1[C@H](OC(C)(C)C)C(=O)O)N1CCC(C)(CC1)OCCCCCCc1ccccc1COC3 stay below 10 nM?
no (0)

Does the reported EC50 of Cc1nc2cc3nn2c(c1[C@H](OC(C)(C)C)C(=O)O)N1CCC(C)(CC1)OCCCCOC(C(C)C)c1cn(nn1)C3 (some centres unmarked) stay below 10 nM?
no (0)

Does the reported EC50 of Cc1nc2cc3nn2c(c1[C@H](OC(C)(C)C)C(=O)O)N1CCC(C)(CC1)OCCCCCc1ccccc1COC3 stay below 10 nM?
no (0)

----------
Tested on: NL-RLuc virus (recombinant HIV NL4-3 with Renilla Luciferase) in MT-2 cells
ASSAY REMARKS: Inhibition of HIV replication (NL-RLuc virus in MT-2 cells, luciferase readout)
Assay type: cell-based, human immunodeficiency virus (HIV)
CONDITION DESCRIPTION: MT2, 120 h, NL-RLuc virus infecting MT-2 cells, 5 days of incubation, 10% FBS, luciferase quantitation; at least 2 experiments
pEC50: −log10 of the molar value.
Threshold rule: pEC50 greater than or equal to 8 is yes (1); below that, no (0).

// known answers, use as guide
Cc1nc2cc3nn2c(c1[C@H](OC(C)(C)C)C(=O)O)N1CCC(C)(CC1)OCCCC[C@H](C)Oc1cc(Cl)ccc1COC3
yes (1)
Cc1nc2cc3nn2c(c1[C@H](OC(C)(C)C)C(=O)O)N1CCC(C)(CC1)OCCCC[C@H](C)Oc1cc(F)ccc1CCC3
yes (1)
Cc1nc2cc3nn2c(c1[C@H](OC(C)(C)C)C(=O)O)N1CCC(C)(CC1)OCCCCOC1(CCCCC1)c1cn(nn1)C3
no (0)
Cc1nc2cc3nn2c(c1[C@H](OC(C)(C)C)C(=O)O)N1CCC(C)(CC1)OCCCCc1cc(F)c(F)cc1COC3
yes (1)
Cc1cc2c(cc1Cl)COCc1cc3nc(C)c([C@H](OC(C)(C)C)C(=O)O)c(n3n1)N1CCC(C)(CC1)OCCCCC[C@H](C)O2
no (0)

Can Cc1nc2cc3nn2c(c1[C@H](OC(C)(C)C)C(=O)O)N1CCC(C)(CC1)OCCCC[C@H](C)Oc1c(ccc2ccccc12)COC3 be said to have pEC50 at or above 8?
yes (1)

----------
Tested on: NL-RLuc virus (recombinant HIV NL4-3 with Renilla Luciferase) in MT-2 cells
ASSAY REMARKS: Inhibition of HIV replication (NL-RLuc virus in MT-2 cells, luciferase readout)
Type: cell-based, human immunodeficiency virus (HIV)
CONDITION DESCRIPTION: MT2, 120 h, NL-RLuc virus infecting MT-2 cells, 5 days of incubation, 10% FBS, luciferase quantitation; at least 2 experiments
From the text: Inhibition of HIV Replication: A recombinant NL-RLuc proviral clone was constructed in which a section of the nef gene from NL4-3 was replaced with the Renilla Luciferase gene. […] In addition, the luciferous reporter provides a simple and easy method for quantitating the extent of virus growth and consequently, the antiviral activity of test compounds. […] Luciferase was quantitated using the Dual Luciferase kit from Promega (Madison, Wis.). […]
Consider the cut-off 100 nM. If the recorded EC50 is strictly smaller, the label is 1 (yes); if not, the label is 0 (no).

// known answers, use as guide
Cc1cc2c(cc1Cl)COCc1cc3nc(C)c([C@H](OC(C)(C)C)C(=O)O)c(n3n1)N1CCC(C)(CC1)OCCCC[C@H](C)O2
1 (yes)
Cc1nc2cc3nn2c(c1[C@H](OC(C)(C)C)C(=O)O)N1CCC(C)(CC1)OCC=CCOCc1cn(nn1)C3
0 (no)
Cc1cc(CN2CC=CCOC3(C)CCN(CC3)c3c([C@H](OC(C)(C)C)C(=O)O)c(C)nc4cc(nn34)CNC(=O)C2=O)ccc1F
0 (no)

Does the reported EC50 of Cc1ccc2c(c1)O[C@@H](C)CCCCOC1(C)CCN(CC1)c1c([C@H](OC(C)(C)C)C(=O)O)c(C)nc3cc(nn13)CN(C1CC1)C2 stay below 100 nM?
1 (yes)

Does the reported EC50 of Cc1nc2cc3nn2c(c1[C@H](OC(C)(C)C)C(=O)O)N1CCC(C)(CC1)OCC=CC[C@H](C)Oc1cc(Cl)ccc1COC3 stay below 100 nM?
1 (yes)

Does the reported EC50 of Cc1ccc2c(c1)O[C@@H](C)CCCCOC1(C)CCN(CC1)c1c([C@H](OC(C)(C)C)C(=O)O)c(C)nc3cc(nn13)COC2 stay below 100 nM?
1 (yes)

----------
Tested on: NL-RLuc virus (recombinant HIV NL4-3 with Renilla Luciferase) in MT-2 cells
ASSAY REMARKS: Inhibition of HIV replication (NL-RLuc virus in MT-2 cells, luciferase readout)
Type: cell-based, human immunodeficiency virus (HIV)
CONDITION DESCRIPTION: MT2, 120 h, NL-RLuc virus infecting MT-2 cells, 5 days of incubation, 10% FBS, luciferase quantitation; at least 2 experiments
MEASUREMENT TYPE: pEC50
Answers are plain numbers, as −log10 of the molar value.

Cc1nc2cc3nn2c(c1[C@H](OC(C)(C)C)C(=O)O)N1CCC(C)(CC1)OCCCCOc1ccccc1CC(=O)NC3
7.62
Cc1nc2cc3nn2c(c1[C@H](OC(C)(C)C)C(=O)O)N1CCC(C)(CC1)OCCCC[C@H](C)Oc1ccc(F)c(F)c1CCC3
8.70
Cc1nc2cc3nn2c(c1[C@H](OC(C)(C)C)C(=O)O)N1CCC(C)(CC1)OCCCCOCc1ccccc1-c1cn(nn1)C3
7.35

Now take the following compound into account.
For Cc1nc2cc3nn2c(c1[C@H](OC(C)(C)C)C(=O)O)N1CCC(C)(CC1)OCCCCc1ccccc1C(=O)NC3 , what is its reported pEC50?
6.92

----------
Test system: NL-RLuc virus (recombinant HIV NL4-3 with Renilla Luciferase) in MT-2 cells
ASSAY REMARKS: Inhibition of HIV replication (NL-RLuc virus in MT-2 cells, luciferase readout)
Format: cell-based, human immunodeficiency virus (HIV)
CONDITION DESCRIPTION: MT2, 120 h, NL-RLuc virus infecting MT-2 cells, 5 days of incubation, 10% FBS, luciferase quantitation; at least 2 experiments
Text: Inhibition of HIV Replication: A recombinant NL-RLuc proviral clone was constructed in which a section of the nef gene from NL4-3 was replaced with the Renilla Luciferase gene. […] In addition, the luciferous reporter provides a simple and easy method for quantitating the extent of virus growth and consequently, the antiviral activity of test compounds. […] Luciferase was quantitated using the Dual Luciferase kit from Promega (Madison, Wis.). […]
Binning scheme for EC50: low = under 7 nM, middle = from 7 nM up to 20 nM, high = 20 nM and over

// known answers, use as guide
Cc1nc2cc3nn2c(c1[C@H](OC(C)(C)C)C(=O)O)N1CCC(C)(CC1)OCCCC[C@H](C)Oc1cc(F)cc(F)c1COC3
low
Cc1nc2cc3nn2c(c1[C@H](OC(C)(C)C)C(=O)O)N1CCC(C)(CC1)OCCCc1ccccc1CCC3
high
Cc1nc2cc3nn2c(c1[C@H](OC(C)(C)C)C(=O)O)N1CCC(C)(CC1)OCCCC[C@H](C)Oc1cc(F)c(F)cc1CCC3
low
Cc1nc2cc3nn2c(c1[C@H](OC(C)(C)C)C(=O)O)N1CCC(C)(CC1)OCCCCc1cccc(c1)COC3
middle
Cc1ccc2c(c1)O[C@@H](C)CCCCOC1(C)CCN(CC1)c1c([C@H](OC(C)(C)C)C(=O)O)c(C)nc3cc(nn13)CO[C@@H]2C (single isomer, unassigned)
middle

Pick a category. Item: Cc1nc2cc3nn2c(c1[C@H](OC(C)(C)C)C(=O)O)N1CCC(C)(CC1)OCCCc1cc(F)ccc1COC3
low

Pick a category. Item: Cc1ccc2c(c1)COCc1cc3nc(C)c([C@H](OC(C)(C)C)C(=O)O)c(n3n1)N1CCC(C)(CC1)OCC=CC[C@H](C)O2
low

Pick a category. Item: Cc1nc2cc3nn2c(c1[C@H](OC(C)(C)C)C(=O)O)N1CCC(C)(CC1)OCC=CCc1ccccc1C(=O)NC3
high
